Experiment: Cell death by Annexin-V-APC/PI flow cytometry
Format: cell-based, human
Settings: CEM, 2h; read-out: cytotoxic concentration that induces around 50% of cell death (CC50)
VALUE TYPE: CC50 (µM)
Hi! Could you send only the number? It should be in µM, unit omitted.

Given CSCC[C@H](NC(=O)[C@@H](NC(=O)[C@@H](NC(=O)[C@H](Cc1ccc(O)cc1)NC(=O)[C@H](Cc1ccccc1)NC(=O)[C@H](CCCNC(=N)N)NC(=O)[C@H](N)CCCCN)C(C)C)C(C)C)C(=O)N[C@@H](Cc1c[nH]c2ccccc12)C(=O)N[C@@H](CCCCN)C(=O)N[C@H](CCCCN)C(=O)O , state its recorded CC50.
200

Where do the numbers come from? From patent US20220000967A1.
